target_or_test_system: biotinylated human DLL3 protein expressed as a human IgG1 fusion protein (human) (UniProt Q9NYJ7)
Sequence (Q9NYJ7 27-492): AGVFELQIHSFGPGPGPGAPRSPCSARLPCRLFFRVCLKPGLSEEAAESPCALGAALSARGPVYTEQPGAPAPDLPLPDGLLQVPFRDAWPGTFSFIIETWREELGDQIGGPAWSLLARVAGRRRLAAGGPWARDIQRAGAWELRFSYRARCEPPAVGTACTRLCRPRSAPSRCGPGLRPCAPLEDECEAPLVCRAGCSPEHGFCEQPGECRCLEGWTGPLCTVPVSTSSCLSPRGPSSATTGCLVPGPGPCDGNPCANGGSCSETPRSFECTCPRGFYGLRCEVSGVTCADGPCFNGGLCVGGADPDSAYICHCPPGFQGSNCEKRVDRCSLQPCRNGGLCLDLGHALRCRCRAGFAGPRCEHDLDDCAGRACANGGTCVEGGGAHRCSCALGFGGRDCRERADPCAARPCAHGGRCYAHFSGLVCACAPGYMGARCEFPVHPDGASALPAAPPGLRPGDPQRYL
assay_info: Octet, several concentrations of trispecific (60, 20, 6.67, 2.22 nM), human DLL3
recorded_endpoint: pKd
The read-out pKd is expressed as -log10 of concentration in moles per litre.

anti-DLL3 trispecific protein, DLL3 binder 1A011 (protein, part only; not given: anti-CD3 fragment and anti-albumin domain, part only) chain, part: EVQLVESGGGLVQPGGSLTLSCVASGSTSSINAIGWYRRAPGKQRELVAGISSDGSKVYIDSVKGRFTISRDNAKNSVYLQMNSLRAEDTAVYYCYYFRTVSGSSYRYWGQGTLVTVSSGGGGSGGGSGGGGSGGGSHHHHHH : 8.46

Using the record for anti-DLL3 trispecific protein, DLL3 binder 4H011 (protein, part only; not given: CD3 fragment and albumin sdAb, part only) chain, part: EVQLVESGGGLVQPGGSLTLSCAASGSSVSRLSMAWYRQAPGKKRELVAGISVDGSTDYIDSVKGRFTISRDNAKNSVYLQMNSLRAEDTAVYYCYAYRWTTRLTYWGQGTLVTVSSGGGGSGGGSGGGGSGGGSHHHHHH , state its measured pKd. 8.41

Annotate the binder anti-DLL3 trispecific protein, DLL3 binder 3A011 (protein, part only; not given: anti-CD3 fragment and anti-albumin domain, part only) chain, part: EVQLVESGGGLVQPGGSLTLSCAASGSSVSFLSLAWYRQAPGKKRELVAGISTDGSTDYIDSVKGRFTISRDNAKNSVYLQMNSLRAEDTAVYYCYAYRWRTRYTYWGQGTLVTVSSGGGGSGGGSGGGGSGGGSHHHHHH with its measured pKd. 8.14
